# Assayed system: BACE1 (Homo sapiens, UniProt P56817)
# Construct: endogenous in cells; host or cells: SH-SY5Y (ATCC CRL2266) stably expressing human APP695Wt
# Sequence (P56817 46-501): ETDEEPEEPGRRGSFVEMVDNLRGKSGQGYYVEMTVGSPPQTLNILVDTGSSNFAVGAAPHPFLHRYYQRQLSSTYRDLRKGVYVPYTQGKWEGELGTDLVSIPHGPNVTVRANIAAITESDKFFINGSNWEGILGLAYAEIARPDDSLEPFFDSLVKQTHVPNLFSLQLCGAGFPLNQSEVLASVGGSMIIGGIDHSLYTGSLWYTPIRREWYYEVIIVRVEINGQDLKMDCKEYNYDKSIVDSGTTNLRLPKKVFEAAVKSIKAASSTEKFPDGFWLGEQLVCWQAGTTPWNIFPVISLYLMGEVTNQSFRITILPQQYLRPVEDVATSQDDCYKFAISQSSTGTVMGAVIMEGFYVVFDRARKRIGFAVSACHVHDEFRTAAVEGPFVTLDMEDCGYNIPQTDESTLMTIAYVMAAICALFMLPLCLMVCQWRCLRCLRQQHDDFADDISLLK
# Assay notes: SH-SY5YAPP695Wt Whole Cell Assay (Abeta ELISA)
# Format: cell-based
# Experimental setup: SH-SY5Y cells stably expressing human APP695Wt, 24 hours incubation, Abeta 1-42 in conditioned media; mean ± standard deviation of the mean (0.0187), n=6; read-out: IC50 for SH-SY5YAPP695Wt A-beta (1-42) ELISA
# Method: To assess selectivity of BACE1 over BACE2, the test compound is evaluated in FRET assays using specific substrates for BACE1 and BACE2 as described below. For in vitro enzymatic and cellular assays, the test compound is prepared in DMSO to make up a 10 mM stock solution. […] At the end of the incubation, conditioned media are analyzed for evidence of beta-secretase activity by analysis of Abeta peptides 1-40 and 1-42 by specific sandwich ELISAs. […]
pIC50: −log10 of the molar value.

{"columns": ["Structure as smiles", "pIC50"],
 "data": [
  ["CC(F)(F)[C@H]1C[C@H]2CSC(N)=N[C@@]2(c2cc(NC(=O)c3ccc(C#N)cn3)ccc2F)CO1", 10.50]
]}

====

# Assayed system: Human BACE1(1-460):Fc (Homo sapiens, UniProt P56817)
# Sequence (P56817 22-460): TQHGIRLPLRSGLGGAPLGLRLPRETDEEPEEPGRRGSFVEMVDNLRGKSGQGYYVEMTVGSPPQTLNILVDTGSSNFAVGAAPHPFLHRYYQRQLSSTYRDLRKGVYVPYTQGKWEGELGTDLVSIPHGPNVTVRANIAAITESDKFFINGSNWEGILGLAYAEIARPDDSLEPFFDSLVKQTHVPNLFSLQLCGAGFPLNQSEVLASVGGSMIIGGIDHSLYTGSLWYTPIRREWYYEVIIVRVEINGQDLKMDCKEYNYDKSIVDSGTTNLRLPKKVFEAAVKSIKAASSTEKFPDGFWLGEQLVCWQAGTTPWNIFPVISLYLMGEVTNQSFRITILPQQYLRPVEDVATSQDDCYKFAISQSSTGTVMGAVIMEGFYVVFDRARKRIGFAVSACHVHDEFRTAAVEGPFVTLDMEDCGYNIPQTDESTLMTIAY
# Assay notes: BACE1 FRET Assay
# Experimental setup: purified recombinant huBACE1:Fc, FRET substrate based on APP sequence, pH 4.6; mean ± standard deviation of the mean (0.035), n=5

{"columns": ["Structure as smiles", "Endpoint unit", "IC50"],
 "data": [
  ["CC(F)(F)[C@H]1C[C@H]2CSC(N)=N[C@@]2(c2cc(NC(=O)c3ccc(C#N)cn3)ccc2F)CO1", "nM", 0.263]
]}

src = patent US20210355138A1
